Values were extracted from the supplement of paper PMC10567573.

Some variants, each annotated with its measured protein stability index.
B1: BEX1 (parent)
chain: EENMERIGEEVRQLMEKLREKQLS

- Variants of: B1
- assayDetails: protein stability index of a GFP-peptide fusion (GPS, HEK-293T) (PSI 1-6); higher = more stable;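 further: lentivirally expressed fusions sorted by FACS into six bins by GFP to DsRed ratio, PSI derived from sequencing read proportions per bin multiplied by bin number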
- protocolConditions: c terminus: a fixed tail appended
Answer as a number with no unit attached.

>  <variantCode>
E2C

>  <endpointValue>
4.07

$$$$

Proceed to the following item.
Could you share which protein stability index value was measured for E9V ?
4.07
